Entry source: patent EP4574152A1

- assayedSystem: Kv7.3 A315T (Homo sapiens, UniProt O43525, A315T)
- Construct: expressed in transfected cells; host or cells: CHO, transient
- assayProtocol: fluorescence-based thallium flux assay (FluxOR) in CHO cells stably transfected with Kv7.3 A315T
- Type: cell-based
- measurementContext: FluxOR assay, ten-point dose-response curve from 0.5 nM to 10 µM; read-out: EC50
outcomeMeasure: EC50 (nM)
# value in nM; strip the unit string

Request: Please give the measured EC50 for this molecule: Fc1ccc(CN2CCC(Nc3ccc(C(F)(F)F)nn3)CC2)cc1F [JNJ-37822681]
Response: 140

---

- assayedSystem: Kv7.3 A315T (Homo sapiens, UniProt O43525, A315T)
- Construct: expressed in transfected cells; host or cells: CHO, transient
- assayProtocol: fluorescence-based thallium flux assay (FluxOR) in CHO cells stably transfected with Kv7.3 A315T
- Type: cell-based
outcomeMeasure: pEC50
Just so you know, pEC50 here is -log10 of the concentration in molar units; reply with that number alone.

Request: Please give the measured pEC50 for this compound: CCOC(=O)Nc1ccc(NCc2ccc(F)cc2)cc1N [retigabine, reference compound]
Response: 6.52

---

- assayedSystem: Kv7.3 A315T (Homo sapiens, UniProt O43525, A315T)
- Construct: expressed in transfected cells; host or cells: CHO, transient
- assayProtocol: whole-cell patch-clamp in CHO cells transiently transfected with Kv7.3 A315T cDNA
- Type: cell-based
- measurementContext: calculated from ΔV1/2, dose-response 0.01-30 µM; read-out: EC50
outcomeMeasure: EC50
Please give the number followed by its unit.

Request: Please give the measured EC50 for this compound: Fc1ccc(CN2CCC(Nc3ccc(C(F)(F)F)nn3)CC2)cc1F [JNJ-37822681]
Response: 2000 nM
